- target-or-system: T1, human LILRB2 expressed on cells (human, UniProt Q8N423 22-597)
- T1 construct: In 293T cells it was expressed from pCMV3-LILRB2-GFP; also called CHO-LILRB2; Jurkat-LILRB2
- T1 sequence (Q8N423 other isoform, or with tags, fused parts or gaps limits assumed): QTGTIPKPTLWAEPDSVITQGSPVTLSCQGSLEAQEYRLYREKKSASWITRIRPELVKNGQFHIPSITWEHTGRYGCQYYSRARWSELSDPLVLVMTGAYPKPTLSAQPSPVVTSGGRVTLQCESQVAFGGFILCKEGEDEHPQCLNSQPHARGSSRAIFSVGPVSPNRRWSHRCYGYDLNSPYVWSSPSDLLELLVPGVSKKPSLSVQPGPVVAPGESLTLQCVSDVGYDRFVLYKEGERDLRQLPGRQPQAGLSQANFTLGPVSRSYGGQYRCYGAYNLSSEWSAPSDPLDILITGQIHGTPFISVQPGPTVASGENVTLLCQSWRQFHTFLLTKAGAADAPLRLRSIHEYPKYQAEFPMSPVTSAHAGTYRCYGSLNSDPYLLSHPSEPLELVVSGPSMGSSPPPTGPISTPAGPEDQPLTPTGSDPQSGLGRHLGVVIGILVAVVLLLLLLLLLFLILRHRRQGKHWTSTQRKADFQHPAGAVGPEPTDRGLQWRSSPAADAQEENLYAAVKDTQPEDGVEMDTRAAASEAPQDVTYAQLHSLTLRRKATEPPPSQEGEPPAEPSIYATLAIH
- assay-notes: flow cytometry, CHO-LILRB2 cells
Reported EC50 values follow for various binders
Please reply with the bare figure in µg/mL and do not write the unit itself.

Worked cases, EC50 given:
D2M002-002 (antibody, V domains shown, Hit from immunised mice; also called clone #2; anti-LILRB1/2 clone #2) VH: EVQLQQSGPELVKPGASVKMSCKASGYTFTRYVMHWVKQKPGQGLEWIGYINPNNDGTKYNEKFKGKVTLTSDKSSSTAYMELSSLTSEDSAVYYCARGDLEILPYYDHARNAMDYWGQGTSVTVSS VL: DVQMIQSPASLSASVGETVTITCRASENIYSYLAWYQQKQGKSPQLLVYNAKTLAEGVPSRFSGSGSGTQFSLKINSLQPEDFGSYYCQHFWSTPPTFGGGTKLEIK	0.21
D2M002-026 (antibody, V domains shown, Hit; also called clone #26) VH: QVQLQQPGAELMKPGASVKISCKATGYTFSSYWIEWVKQRPGHGLEWIGEILPGDGSTNYNAKFKGQATFTADTSSNTAYMQFSSLTSEDSAVYYCARSGAGGYDSGAFAYWGQGTLVTVSS VL: DIVLTQSPASLAVSLGQRATISCRASESVDTYGNSFMHWYQQKPGQPPKLLVYRTSNLESGIPARFSGSGSGTDFTLTINPVEADDVATYYCQQSNEDPWTFGGGTKLEIK	2.63

# evaluate next
Lookup: Consider the binder shown here: #8 (antibody, human IgG1, V domains shown, also called D2M002-008) VH: EVQLQQPGAELMKPGASVKISCKATGYTFSSSWTEWVKQRPGHGLEWIGEILPGSGSTNYNEKFKGKATFTADTSSNTAYMQLSSLTSEDSAVYYCARSGAGGYDSGAFAYWGQGTLVTVSA VL: DIVLTQSPASLAVSLGQRATISCRASESIDTYGNSFMHWYQQKPGQPPKLLIYRTSNLESGIPARFSGSGSRTDFTLTINPVEADDVATYYCQQSNEDPWTFGGGTKLEIK What is its recorded EC50?
Found: 0.565
